The measured values listed here are drawn from patent US8802712B2.

# target of assay: DNA-PK (Homo sapiens (Human))
# assay overview: DNA-PK/Biochemical Assay (FlashPlate kinase assay)
# conditions: 5 μM ATP, 90 min, room temperature
Reported IC50 by item:

Reported IC50 (DNA-PK (Homo sapiens (Human))) for entry COc1cc2ncc3c(c(-c4ccc(C#N)c(Br)c4)nn3C)c2cc1OC is < 0.1 µM

###

# target of assay: DNA-PK (Homo sapiens (Human))
# assay overview: DNA-PK/Biochemical Assay (FlashPlate kinase assay)
# conditions: 5 μM ATP, 90 min, room temperature
pIC50: −log10 of the molar value.
Listed compounds paired with reported pIC50

INSERT INTO assay_data (compound, assay_result) VALUES
  ('COc1cc2ncc3c(c(-c4ccc(C#N)cc4F)nn3C)c2cc1-c1cnc2ccccc2c1', '> 7.00'),
  ('COc1cc2ncc3c(c(-c4ccc(C#N)cc4)nn3C)c2cc1OCc1ccccc1C#N', '6.30 to 7.00'),
  ('CCCCn1nc(-c2ccc(C#N)cc2)c2c3cc(OC)c(OC)cc3ncc21', '< 6.30'),
  ('COc1cc2ncc3c(c(-c4ccc(C#N)cc4)nn3C)c2cc1OCc1ccccn1', '< 6.30'),
  ('COc1cc2ncc3c(c(-c4ccc(C#N)cc4)nn3C)c2cc1OC(C(=O)NCCS(N)(=O)=O)c1ccc(F)cc1 (stereo not drawn)', '6.30 to 7.00'),
  ('COc1cc2ncc3c(c(-c4ccc(C#N)cc4)nn3C)c2cc1OC(C)(C(=O)O)c1ccccc1 (stereo not drawn)', '< 6.30');

The recorded pIC50 for entry COc1cc2ncc3c(c(-c4ccc(C#N)cc4)nn3C)c2cc1OP(=O)(O)c1ccccc1 equals 6.30 to 7.00

response.value for COc1cc2ncc3c(c(-c4ccc(C#N)cc4F)nn3Cc3cccnc3)c2cc1OC (field: pIC50) = < 6.30

pIC50 for COc1cc2ncc3c(c(-c4ccc(C#N)cc4)nn3C)c2cc1OCc1cccnc1 is > 7.00

###

Catalogue of IC50 readings, one per entry.
# target of assay: DNA-PK (Homo sapiens (Human))
# assay overview: DNA-PK/Biochemical Assay (FlashPlate kinase assay)
# conditions: 5 μM ATP, 90 min, room temperature

INSERT INTO assay_data (molecule, measurement_label, assay_result) VALUES
  ('COc1cc2ncc3c(c(-c4ccc(C#N)cc4)nn3C)c2cc1OC(C(=O)NCCN(C)C)c1ccc(F)cc1 (centres unmarked) [Compound 49]', 'IC50', '100 to 500 nM'),
  ('COc1cc2ncc3c(c(-c4ccc(C#N)cc4)nn3C)c2cc1OCc1ccsc1 [Compound 35]', 'IC50', '< 100 nM'),
  ('COc1cc2ncc3c(c(-c4ccc(C#N)cc4)nn3C)c2cc1OCc1ccc(-n2cncn2)cc1 [Compound 31]', 'IC50', '> 500 nM'),
  ('C=CCn1nc(-c2ccc(C#N)cc2)c2c3cc(OC)c(OC)cc3ncc21 [Compound 63]', 'IC50', '100 to 500 nM');

Consider the record given below.
Input COc1cc2ncc3c(c(-c4ccc(-c5ccn[nH]5)cc4)nn3C)c2cc1OCc1cncs1 [Compound 79] . Output IC50: < 100 nM

###

# target of assay: DNA-PK (Homo sapiens (Human), UniProt P78527)
# assay overview: DNA-PK/Biochemical Assay (FlashPlate kinase assay)
# conditions: 5 μM ATP, 90 min, room temperature
Counter-ions that a name gives are not always drawn.
measurement label: IC50

Answered examples (2):
INSERT INTO assay_data (molecule, measurement_label, assay_result) VALUES
  ('COc1cc2ncc3c(c(-c4ccc(C#N)cc4)nn3C)c2cc1OC(C(=O)NCCN1CCNCC1)c1ccc(F)cc1 (stereo not drawn)', 'IC50', '> 500 nM'),
  ('COc1cc2ncc3c(c(-c4ccc(-c5ccn[nH]5)cc4)nn3C)c2cc1-c1cn[nH]c1', 'IC50', '< 100 nM');

Entry COc1cc2ncc3n[nH]c(-c4ccc(C#N)c(C(=O)O)c4)c3c2cc1OC , tested on DNA-PK (Homo sapiens (Human), UniProt P78527), has a reported IC50 of < 100 nM

Considering COc1cc2ncc3c(c(-c4ccc(C#N)cc4)nn3C)c2cc1OC(C(=O)O)c1ccc(F)cc1 (stereo not drawn) , its IC50 with DNA-PK (Homo sapiens (Human), UniProt P78527) was recorded as < 100 nM

The recorded IC50 with DNA-PK (Homo sapiens (Human), UniProt P78527) for COc1cc2ncc3c(c(-c4ccc(C#N)cc4F)nn3C)c2cc1-c1cccnc1 was < 100 nM

Param item: COc1cc2ncc3c(c(-c4ccc(C#N)cc4)nn3C)c2cc1OCc1cccc(CN)c1 [Compound 32, hydrochloride] ; param system: DNA-PK (Homo sapiens (Human), UniProt P78527); output IC50: 100 to 500 nM
